# Assay details: Reducing power (RP) assay
# Parameters: concentration or dose not given beside the values
# Assay setup: relative to ascorbic acid
# Experimental: Herein, the iron (III) is not free in the solution as it was in the FRAP assay and is complexed by cyanide ions. […] Against a blank sample, the absorbances were measured at λ = 700 nm. […] Using Equation (4), we calculated the reducing power of the 5a–d and 6a–d compounds as a percentage of the reference compounds activity. The evaluated compounds can reduce ferricyanide to ferrocyanide, in the presence of ferric ions, resulting in the Perl’s Prussian which gives blue. […]
Reported property: RP, % of Activity of Ascorbic Acid (%)
Please respond with the number in % and leave the unit unwritten.

- Smiles notation: "C=CCn1c(SCC(=O)NN=Cc2ccc(O)c(O)c2O)nc2ccccc2c1=O"
  Assay value: 63.20

Exam item: Field request: RP, % of Activity of Ascorbic Acid | item: "CC(=NNC(=O)CSc1nc2ccccc2c(=O)n1Cc1ccccc1)c1ccc(O)cc1O"
Marked response: 19.91

Exam item: Field request: RP, % of Activity of Ascorbic Acid | item: "CCn1c(SCC(=O)NN=C(C)c2ccc(O)cc2O)nc2ccccc2c1=O"
Marked response: 19.89

* * *

# Assay details: Phosphomolybdate assay for total antioxidant capacity (TAC)
# Set-up: concentration or dose not given beside the values
# Assay setup: relative to ascorbic acid
Label 1 when TAC, % of Activity of Ascorbic Acid is strictly below 80%; at or above that, label 0.

- Smiles notation: "CC(=NNC(=O)CSc1nc2ccccc2c(=O)n1Cc1ccccc1)c1ccc(O)cc1O"
  Class assignment: 1

Exam item: Item "CCn1c(SCC(=O)NN=C(C)c2ccc(O)cc2O)nc2ccccc2c1=O" : TAC, % of Activity of Ascorbic Acid beneath 80%, strictly?
Marked response: 1

Exam item: Item "CCn1c(SCC(=O)NN=Cc2ccc(O)c(O)c2O)nc2ccccc2c1=O" : TAC, % of Activity of Ascorbic Acid beneath 80%, strictly?
Marked response: 0

Exam item: Item "C=CCn1c(SCC(=O)NN=Cc2ccc(O)c(O)c2O)nc2ccccc2c1=O" : TAC, % of Activity of Ascorbic Acid beneath 80%, strictly?
Marked response: 0

Exam item: Item "CCCCn1c(SCC(=O)NN=Cc2ccc(O)c(O)c2O)nc2ccccc2c1=O" : TAC, % of Activity of Ascorbic Acid beneath 80%, strictly?
Marked response: 1

Exam item: Item "C=CCn1c(SCC(=O)NN=C(C)c2ccc(O)cc2O)nc2ccccc2c1=O" : TAC, % of Activity of Ascorbic Acid beneath 80%, strictly?
Marked response: 1

Exam item: Item "CCCCn1c(SCC(=O)NN=C(C)c2ccc(O)cc2O)nc2ccccc2c1=O" : TAC, % of Activity of Ascorbic Acid beneath 80%, strictly?
Marked response: 1

* * *

# Assay details: Reducing power (RP) assay
# Design: concentration or dose not given beside the values
# Assay setup: relative to ascorbic acid
Reported property: RP, % of Activity of Ascorbic Acid (%)
Please respond with the number in % and leave the unit unwritten.

- Smiles notation: "CCn1c(SCC(=O)NN=Cc2ccc(O)c(O)c2O)nc2ccccc2c1=O"
  Reported property: "RP, % of Activity of Ascorbic Acid"
  Assay value: 49.93

Exam item: Field request: RP, % of Activity of Ascorbic Acid | item: "CCCCn1c(SCC(=O)NN=Cc2ccc(O)c(O)c2O)nc2ccccc2c1=O"
Marked response: 49.54

Exam item: Field request: RP, % of Activity of Ascorbic Acid | item: "CCCCn1c(SCC(=O)NN=C(C)c2ccc(O)cc2O)nc2ccccc2c1=O"
Marked response: 16.84

Exam item: Field request: RP, % of Activity of Ascorbic Acid | item: "O=C(CSc1nc2ccccc2c(=O)n1Cc1ccccc1)NN=Cc1ccc(O)c(O)c1O"
Marked response: 58.80

Exam item: Field request: RP, % of Activity of Ascorbic Acid | item: "C=CCn1c(SCC(=O)NN=C(C)c2ccc(O)cc2O)nc2ccccc2c1=O"
Marked response: 21.09
